B1: library; numbered along this chain (parent)
chain: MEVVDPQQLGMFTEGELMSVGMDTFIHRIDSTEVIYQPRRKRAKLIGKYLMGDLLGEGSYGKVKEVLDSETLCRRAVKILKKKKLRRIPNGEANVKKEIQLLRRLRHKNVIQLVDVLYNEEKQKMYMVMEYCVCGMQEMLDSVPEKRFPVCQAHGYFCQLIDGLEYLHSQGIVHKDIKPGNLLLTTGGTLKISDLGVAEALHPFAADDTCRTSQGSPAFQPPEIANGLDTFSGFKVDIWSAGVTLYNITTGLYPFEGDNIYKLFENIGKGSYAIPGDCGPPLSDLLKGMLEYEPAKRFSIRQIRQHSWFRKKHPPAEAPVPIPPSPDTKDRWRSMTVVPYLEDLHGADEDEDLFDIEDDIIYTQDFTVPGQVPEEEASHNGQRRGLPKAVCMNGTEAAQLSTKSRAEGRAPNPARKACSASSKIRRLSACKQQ

variants of: B1; assay: STK11 functional score (HeLa growth suppression), rescaled enrichment; synonymous median = 1, nonsense median = 0 (normalised score); conditions: with HeLa; variant type: missense
Items are presented alongside their recorded STK11 functional score.
Reply: number alone, nothing else.

Please review the entries below; each comes with its answer.
[
  {
    "mutation-id": "C132N",
    "STK11 functional score": 1.23
  },
  {
    "mutation-id": "V116G",
    "STK11 functional score": 0.415
  },
  {
    "mutation-id": "P314M",
    "STK11 functional score": 1.62
  }
]

## Task Quote STK11 functional score reported for "G251V" please.
## Result -0.0264
